# Test system: ACHN renal
# Protocol description: NCI-60 one-dose screen, 48 h (100 = growth as untreated, 0 = no growth, -100 = all killed)
# Condition label: 10 µM unless noted
About 83,000 compounds went through this panel and 20% of them were active in at least one assay; those are over-represented in the sample as a whole.
Parameter: growth (%)
Answer with a number only, understood to be in %.

Solved cases (5 shown):
{"columns": ["Molecule", "Units of measure", "growth"],
 "data": [
  ["Fc1ccc(Nc2nc3nonc3nc2Nc2ccc(F)cc2)cc1", "%", -15.9],
  ["C=C(C=O)C1CCC2(C(=O)O)CCC3(C)C(CCC4C5(C)CCC(O)C(C)(C)C5CCC43C)C12 (stereo not drawn)", "%", -65.4],
  ["N=C(N)c1ccc(-c2ccc(-c3ccc(Cl)c(Cl)c3)o2)cc1", "%", -70.7],
  ["COc1cc(C2C=C(c3cccc(NC(C)=O)c3)Nc3ncnn32)cc(OC)c1OC (stereo not drawn)", "%", 52.8],
  ["O=C(O)CC1Sc2ccccc2NC1=O (stereo not drawn)", "%", 95.5]
]}

# N=c1ccn2c(n1)OC1C(O)C(CO)OC12 (stereo not drawn) with ACHN renal: growth is -15.9

For the molecule COc1ccc(-n2ncn(CCCCCCn3cnn(-c4ccc(OC)cc4)c3=O)c2=O)cc1 , the measured growth on ACHN renal was 87.5

====

# Tested on: HS 578T breast
# Protocol description: NCI-60 one-dose screen, 48 h
# Condition label: 10 µM unless noted
This is part of a sample that, as a whole, favours compounds with a hit. Of some 83,000 tested, about 20% had one in any assay. The source made the active and inactive calls. How the source made its calls: active means growth percent below 10; inactive means the rest.
One label from this list, please: active, inactive

Worked examples follow.
{"columns": ["Compound", "Measured on", "Answer label"],
 "data": [
  ["COc1cc2c(O)n(CCCn3ccnc3)c3c4cnc5cccc(c(=O)c3c2cc1OC)c54", "HS 578T breast", "inactive"],
  ["CCOC(=O)c1nnn(C(Cc2ccccc2Cl)C(=O)OCC)c1C (stereo unspecified)", "HS 578T breast", "inactive"],
  ["O=C(Nc1ccccn1)[C@H](O)[C@@H](O)C(=O)N1CCOCC1", "HS 578T breast", "inactive"],
  ["O=C(/C=C/c1ccccc1)c1ccc2ccccc2c1", "HS 578T breast", "inactive"],
  ["Cc1ccc(NSc2ccccc2[N+](=O)[O-])cc1", "HS 578T breast", "inactive"]
]}

Exercise: Recorded test outcome, item CN(C)CCn1cc(-c2ccc3c(Nc4ccc(CC(=O)Nc5cccc(F)c5)cc4)ncnc3c2)cn1
Key: active

====

# maps each entry to its growth
# System: CAKI-1 renal
# Protocol description: NCI-60 one-dose screen, 48 h (100 = growth as untreated, 0 = no growth, -100 = all killed)
# Condition label: 10 µM unless noted
# Procedure: Growth inhibition of the CAKI-1 human tumor cell line is measured as a screen for anti-cancer activity. Cells are grown in 96 well plates and exposed to the test compound for 48 hours. Compounds are tested at a single concentration, which is 10^-5 M for most compounds. The reported endpoint is percent growth (GI% or GIPRCNT), where numbers from 0 - 100% represent growth inhibition, and numbers from -100% - 0 represent cell death. For example, a value of 40 represents 60% growth inhibition. […]
The panel holds about 83,000 compounds, 20% with a hit somewhere; the sample as a whole holds those more often.
The reply should be a number in %, with the unit left off.

Record excerpt, results attached:
{"columns": ["Compound", "Units of measure", "growth"],
 "data": [
  ["C[C@@H]1CC[C@@H]2[C@@H]1[C@H](OC(=O)/C=C/c1ccccc1)[C@]1(C3CCCCC3)C[C@@H](NC(=O)CO)[C@@]2(C)O1", "%", 91.7],
  ["CC(C)(C)c1ccc(C(=O)Nc2sc3c(c2C(N)=O)CCC(=O)C3)cc1", "%", -74.9],
  ["Cc1c(Cl)cccc1NS(=O)(=O)c1ccccc1", "%", 116],
  ["COc1cc(C2CC(=O)Nc3n[nH]c(-c4ccccc4)c32)cc(OC)c1OC (stereo not given)", "%", 92],
  ["COc1ccc(/C(C)=C(\\c2ccc(Cl)cc2)c2ccc(OCCN3CCCC3)cc2)cc1F", "%", 22],
  ["CCN(CC)CCOc1ccc(/C(=C(\\C)c2ccc(F)c(OC)c2)c2ccc(Cl)cc2)cc1", "%", 17.1]
]}

GET /value?item= Cn1ncc2c(Nc3ccc(Br)cc3)nc(Nc3ccc(Br)cc3)nc21 &field=growth returns 37.7

Per the records, this compound ( CCc1cc(Cc2cc(CC)cc(C(C)(C)C)c2O)c(O)c(C(C)(C)C)c1 ) has growth equal to 19.6

The recorded growth for CCOC(=O)c1c2c(c(C)n1C)-c1nn(Cc3ccc(OC)cc3)cc1CC2 is 85.2

Entry O=C1Nc2ccccc2SC1C1SC(=S)N(Cc2ccccc2)C1=O (stereo not given) — recorded growth = 78.2
